measured-on: UniProt:Q16539
Sequence (Q16539 whole entry, looked up): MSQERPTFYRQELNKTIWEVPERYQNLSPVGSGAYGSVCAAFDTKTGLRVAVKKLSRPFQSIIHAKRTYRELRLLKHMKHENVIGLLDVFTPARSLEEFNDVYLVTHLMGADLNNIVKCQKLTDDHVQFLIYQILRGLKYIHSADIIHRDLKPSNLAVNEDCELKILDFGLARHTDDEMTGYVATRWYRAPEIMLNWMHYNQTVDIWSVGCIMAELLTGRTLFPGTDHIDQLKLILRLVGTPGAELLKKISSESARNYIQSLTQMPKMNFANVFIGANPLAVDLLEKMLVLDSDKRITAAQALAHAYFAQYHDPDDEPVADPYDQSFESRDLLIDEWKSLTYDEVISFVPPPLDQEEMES
experimental-protocol: Cell-Based Assay
test-context: hct-116
pIC50: −log10 of the molar value.
Entries and their pIC50

# entry-smiles, result
data = [
    ("CC(C)(C)OC(=O)N1CCC(n2cc(-c3cnc(N)c4oc(-c5csc6cnccc56)cc34)cn2)CC1", "6.00 to 7.00"),
    ("Nc1ncc(-c2cnn(C3CCN(CCO)CC3)c2)c2cc(-c3cccc4cnccc34)oc12", "6.00 to 7.00"),
    ("CC(=O)N1CCC(n2cc(-c3cnc(N)c4oc(-c5cccc(C#N)c5)cc34)cn2)CC1", "6.00 to 7.00"),
    ("CC(=O)N1CCC(n2cc(-c3cnc(N)c4oc(-c5cccc6nnsc56)cc34)cn2)CC1", "≥ 7.00"),
    ("Nc1ncc(-c2cnn([C@H]3CC[C@H](O)CC3)c2)c2cc(-c3cccc4nnsc34)oc12", "≥ 7.00"),
    ("CNc1ncc(-c2cnn(C3CCN(C(C)=O)CC3)c2)c2cc(-c3csc4cnccc34)oc12", "≥ 7.00"),
]

# input Give its pIC50 value. Item: "CC(=O)N1CC(n2cc(-c3cnc(N)c4oc(-c5csc6cnccc56)cc34)cn2)C1"
# output 6.00 to 7.00

# input Record: "CC(=O)N1CCC(n2cc(-c3cnc(N)c4oc(-c5cccc6[nH]ccc56)cc34)cn2)CC1"
# output 6.00 to 7.00

# input Record: "Nc1ncc(-c2cnn([C@H]3CC[C@H](O)CC3)c2)c2cc(-c3csc4cnc(F)cc34)oc12"
# output ≥ 7.00

# input Record: "CC(=O)N1CCC(n2cc(-c3cnc(N)c4oc(-c5ccc6[nH]nnc6c5)cc34)cn2)CC1"
# output < 5.00

# input Record: "Nc1ncc(-c2cnn([C@H]3CC[C@H](O)CC3)c2)c2cc(-c3cc(F)cc4cnsc34)oc12"
# output 6.00 to 7.00
